Tested on: DMS-273
Assay method text: NCI tumour cell line growth inhibition, 48 h
The source made the active and inactive calls. No stated cut-off is given here; in the data, active = GI50 up to about 1.1 µM and inactive = higher.
Mark one answer only. Choices: class 1 (active), class 0 (inactive)

Use the examples below as a reference point.
[
  {
    "Compound": "O=C(COC(=O)c1cccc2c(=O)c3ccccc3[nH]c12)Nc1ccc(S(=O)(=O)Nc2ncccn2)cc1",
    "Target desc": "DMS-273",
    "Classification": "class 0"
  },
  {
    "Compound": "CCc1cccc(C)c1NC(=O)CC(=O)NNC(N)=S",
    "Target desc": "DMS-273",
    "Classification": "class 0"
  },
  {
    "Compound": "C1=C2/CC[C@H](Sc3ccccc3)C2C2(CCCCC/1)OCCO2 (stereo not given in full)",
    "Target desc": "DMS-273",
    "Classification": "class 0"
  },
  {
    "Compound": "COc1ccc(-c2oc3c(OC)c(OC)c(OC)c(O)c3c(=O)c2OC)cc1O",
    "Target desc": "DMS-273",
    "Classification": "class 1"
  },
  {
    "Compound": "O=C1OCC(C(=O)c2cccc(O)c2)C1=O (stereo not given)",
    "Target desc": "DMS-273",
    "Classification": "class 0"
  }
]

Record request — test call for c1cc(N(CCn2cccn2)CCn2cccn2)cc(N(CCn2cccn2)CCn2cccn2)c1 class 0

What do you get for CCN(CC)CCSc1c2ccccc2nc2cc(NCC(=O)Nc3ccccc3-c3ccccc3NC(=O)CNc3ccc4c(SCCN(CC)CC)c5ccccc5nc4c3)ccc12 ? class 0

What do you get for COc1ccc(NC(=O)CC(=O)n2nc(-c3ccccc3)c(/N=N/c3ccccc3C)c2-c2ccccc2)cc1 ? class 0

What do you get for CCCCCCCCCCCCCCCCCC(=O)Nc1ccn(C2OC(CO)C(O)C2O)c(=O)n1 (stereo not given) ? class 0

What do you get for CC(=O)NC1C(=O)CC(c2ccccc2)N(C)C1c1ccccc1 (stereo not given) ? class 0

---

System: OVCAR-5
Assay method text: NCI tumour cell line growth inhibition, 48 h
Activity calls are given as the source filed them. Rule as the data show it: active = GI50 up to about 1.1 µM and inactive = higher.
Mark one answer only. Choices: t (active), f (inactive)

Use the examples below as a reference point.
[
  {
    "Compound": "CCN(CC)CCSc1c2ccccc2nc2cc(NCC(=O)Nc3ccccc3-c3ccccc3NC(=O)CNc3ccc4c(SCCN(CC)CC)c5ccccc5nc4c3)ccc12",
    "Classification": "f"
  },
  {
    "Compound": "O=C(O)C12C3CCC(CC3)C1(C(=O)O)C1CCC2C1 (stereo not drawn)",
    "Classification": "f"
  },
  {
    "Compound": "COc1cccc2c1C(=O)c1c(O)c3c(c(O)c1C2=O)C[C@@](O)(C(C)=O)C[C@@H]3OC1CC(N(C)C)C(O)C(C)O1 (stereo partly drawn)",
    "Classification": "t"
  }
]

Record request — test call for CC(=O)O[C@@H]1CO[C@H]2O[C@H]3[C@@H](C(C=O)=C[C@H](O)[C@@H]4C5=C(C(C)C)CC[C@]5(C)CC[C@@]34C)[C@@]2(O)C1=O t

What do you get for COC(=O)c1c(CC(Cc2ccc3c(c2)CCCC3)C(=O)OC)ccc2c1CCCC2 (stereo not drawn) ? f

What do you get for Cc1noc(C)c1-n1nc2ccc3nonc3c2n1 ? f

What do you get for C[N+](C)(C)CC1Cc2ccccc2C1=O (stereo not drawn) ? f

What do you get for Cc1c(Cl)ccc2c1NC(=O)C2(O)CC(=O)c1cccc2ccccc12 (stereo not drawn) ? f

---

Listing of recorded GI50 by entry.
System: UACC-62
Assay method text: NCI tumour cell line growth inhibition, 48 h
The source made the active and inactive calls. No stated cut-off is given here; in the data, active = GI50 up to about 1.1 µM and inactive = higher.

[
  {
    "Molecule": "CC12CCC3(C1)[C@H](CC2=O)C[C@@H](OC(=O)c1ccccc1)C1C(C)(CO)CCC[C@@]13C (stereo partly specified)",
    "Target desc": "UACC-62",
    "GI50": "0.0288 µM (active)"
  },
  {
    "Molecule": "COc1ccc(/C=c2/sc3n(c2=O)NC2(CCC(C)CC2)NN=3)cc1 (stereo unspecified)",
    "Target desc": "UACC-62",
    "GI50": "> 100 µM (inactive)"
  },
  {
    "Molecule": "Cc1cc(O)c2cc3c(O)c(O)ccc3cc2c1",
    "Target desc": "UACC-62",
    "GI50": "1.52 µM (inactive)"
  },
  {
    "Molecule": "CN(C)Cc1cc(C(=O)/C=C/c2ccc(O)cc2)cc(CN(C)C)c1O",
    "Target desc": "UACC-62",
    "GI50": "36.6 µM (inactive)"
  },
  {
    "Molecule": "COC1(OC)N=C(N)C2(C#N)/C(=N/N(C)C)CC(C)C12C#N (stereo unspecified)",
    "Target desc": "UACC-62",
    "GI50": "> 100 µM (inactive)"
  }
]

Next, consider the following molecule.
Return reported GI50; argument: OCCNC1c2cc(Cl)ccc2-c2c(Cl)cc(Cl)cc21 (stereo unspecified) 34 µM (inactive)

---

System: NCI-H23
Assay method text: NCI tumour cell line growth inhibition, 48 h
The source made the active and inactive calls. No stated cut-off is given here; in the data, active = GI50 up to about 1.1 µM and inactive = higher.
Mark one answer only. Choices: active, inactive

Record request — test call for COC(=O)c1c(O)ccc2c1c1c(n2Cc2ccccn2)C(=O)c2ccccc2C1 inactive

What do you get for O=C1N(c2ccccc2)C(=S)/C(=C/c2ccc(Cl)cc2)N1c1ccc(Cl)cc1 ? inactive

What do you get for CC12CCC3(C1)[C@H](CC2=O)C[C@@H](OC(=O)c1ccccc1)C1C(C)(CO)CCC[C@@]13C (stereo not given in full) ? active

What do you get for Cc1ccc2c(c1)C(=O)N(N(C)C)CC(=O)N2 ? inactive

What do you get for C1=C2/CC[C@H](Sc3ccccc3)C2C2(CCCCC/1)OCCO2 (stereo not given in full) ? inactive

What do you get for c1ccc2c(c1)SP1Sc3ccccc3P21 (stereo not given) ? inactive

What do you get for O=C(c1ccccc1)n1c2ccc(Br)cc2c2nc3ccccc3nc21 ? inactive

What do you get for COc1ccc(C[C@H]2NC[C@H](O)[C@H]2OC(C)=O)cc1 ? active

What do you get for C=CC(C)CCC(C/C=C(\C)CCC=C(C)C)C(=C)CCCC(C)C (stereo not given) ? inactive

What do you get for N#CC(=C1C=CC(=NO)C=C1)c1ccc(Cl)cc1 ? inactive

What do you get for [O-][S+]1CSSC1 ? inactive

What do you get for C/C=C/C=C/c1nc(C#N)c(N)o1 ? inactive

---

Test system: DU-145
Assay method text: NCI tumour cell line growth inhibition, 48 h
Active and inactive are the calls of the source. No stated cut-off is given here; in the data, active = GI50 up to about 1.1 µM and inactive = higher.
Reported metric: GI50

[
  {
    "Compound": "CCn1c(SCC(=O)NNC(=S)Nc2ccc(C)cc2)nc2ccccc2c1=O",
    "Reported metric": "GI50",
    "Value reported": "> 100 µM (inactive)"
  },
  {
    "Compound": "COP(C)(=O)C1=CCN(C(=O)OCC[Si](C)(C)C)CC1 (stereo not given)",
    "Reported metric": "GI50",
    "Value reported": "> 100 µM (inactive)"
  },
  {
    "Compound": "O=C1O[C@H](COC(=O)c2ccccc2)[C@@H](OC(=O)c2ccccc2)C=C1OC(=O)c1ccccc1",
    "Reported metric": "GI50",
    "Value reported": "36.6 µM (inactive)"
  },
  {
    "Compound": "CCCC[C@@H](C)/C=C1\\CN2CCC[C@H]2[C@@](C)(O)[C@@H]1O",
    "Reported metric": "GI50",
    "Value reported": "17.3 µM (inactive)"
  }
]

Next, consider the following compound.
Return reported GI50; argument: CCCC[C@@H]1CCN2C[C@@H](O)[C@@H](O)[C@@H]2[C@H]1O > 100 µM (inactive)

---

Listing of recorded GI50 by entry.
Tested on: LOX IMVI
Assay method text: NCI tumour cell line growth inhibition, 48 h
The source made the active and inactive calls. Cut-off read from the data, not from the text of the source: active = GI50 up to about 1.1 µM and inactive = higher.

[
  {
    "Compound": "Cc1cc(C)cc(NC(=O)CCC(=O)C2CCC/C2=N\\NC(=O)C(=O)NN)c1 (stereo not given)",
    "Target desc": "LOX IMVI",
    "GI50": "> 100 µM (inactive)"
  },
  {
    "Compound": "O=C1C(=Cc2cccc(O)c2)N=C(c2ccccc2)N1n1c(-c2ccccc2)nc2ccccc2c1=O",
    "Target desc": "LOX IMVI",
    "GI50": "23.4 µM (inactive)"
  },
  {
    "Compound": "[O-][n+]1c2c([n+]([O-])c3ccccc31)-c1cccc3cccc-2c13",
    "Target desc": "LOX IMVI",
    "GI50": "63 µM (inactive)"
  },
  {
    "Compound": "C[C@@]1(CCCCCCCCCCc2ccccc2)C[C@@]2(C)OC(=O)C[C@H]2OO1",
    "Target desc": "LOX IMVI",
    "GI50": "2.05 µM (inactive)"
  },
  {
    "Compound": "Cn1c(=O)cc(NNc2ccccc2)[nH]c1=O",
    "Target desc": "LOX IMVI",
    "GI50": "14.9 µM (inactive)"
  },
  {
    "Compound": "CN1C(c2ccccc2)CC(=NOCc2ccccc2)CC1c1ccccc1 (stereo not given)",
    "Target desc": "LOX IMVI",
    "GI50": "14.8 µM (inactive)"
  }
]

Next, consider the following compound.
Return reported GI50; argument: CC(=O)[C@]1(C)[C@H](C)O[C@](C)(CO)[C@H]1O[Si](C)(C)c1ccccc1 20.4 µM (inactive)
